Experiment: P. aeruginosa biofilm formation inhibitors, primary screen, strain PAO1, LB-PBS medium, absorbance 600 nm (AID 1176); also: test concentration not given here
Details: P. aeruginosa PAO1 growth/biofilm, A600, 12 h; higher = more signal
EXPERIMENTAL READOUT: z-score
Give bare numbers.

Please review the entries below; each comes with its answer.
| MOLECULE | z-score |
| --- | --- |
| CN(C)C(=O)[C@]1(Cc2ccccc2N=[N+]=[N-])N=C(c2ccc(OCCCO)cc2)O[C@@H]1c1ccccc1N=[N+]=[N-] | 0.438 |
| COc1ccc(/C=C/C=O)cc1 | 0.0061 |
| COc1cc(NN2C(C(O)c3ccco3)C=CC3C(=O)N(c4ccccc4)C(=O)C32)cc(OC)c1OC (stereo not given) | 0.711 |
| NC(=O)NCC#Cc1ccc2c(c1)[C@]1(C(=O)N2)[C@H](C(N)=O)[C@H]2C(=O)O[C@H](c3ccccc3)[C@H](c3ccccc3)N2[C@@H]1c1ccc(O)cc1 | -0.212 |

Would you kindly share the measured z-score for C=CC[C@@]12N=C(c3ccc(OCCCO)cc3)O[C@@H]1c1ccccc1N(C)C2=O ?
0.0684

###

Assay: basal RPMI8226 mitochondrial membrane potential changes, profiling panel, cell-based, JC-1 fluorescence, 24 h, 100 nL compound (AID 1169); also: test concentration not given here
Settings: RPMI8226 myeloma, JC-1 mitochondrial potential fluorescence, higher = more signal
Criterion: z-score meeting or surpassing -0.9. Met: TRUE. Not met: FALSE.

# example entries with known answers
| COMPOUND | CATEGORY |
| --- | --- |
| CN(C)C(=O)[C@@]1(CCS(=O)(=O)c2ccccc2)COC(c2ccc(OCCCO)cc2)=N1 | TRUE |
| CCN(CC)c1ccc(N2CC=CC34O[C@@H]5C=CCCOC(=O)C5[C@H]3C(=O)N(CCCCCCO)[C@@H]4C2=O)cc1 (some centres undefined) | TRUE |
| C=CC[C@]1(C(=O)NCCCOC)N=C(c2ccc(OCCCO)cc2)O[C@H]1c1ccccc1CN=[N+]=[N-] | FALSE |

Identify whether the reported z-score of the following compound is -0.9 or greater: CCCC[C@@H]1C[C@H]1[C@@H](NC(=O)c1ccco1)c1ccccc1C(F)(F)F
TRUE

Consider next the compound C=CCNC(=O)[C@H]1[C@@H]2C(=O)O[C@@H](c3ccccc3)[C@@H](c3ccccc3)N2[C@@H](c2ccccc2OCCO)[C@]12C(=O)Nc1ccc(C#CCC(C(=O)OC)C(=O)OC)cc12 in the same way.
FALSE

Consider next the compound C[N+](C)(C)CCCCNC(=O)[C@@H]1C[C@@H]2C(=O)N[C@@H](Cc3ccccc3)C(=O)N2[C@@H]1c1cccc(OCCO)c1 in the same way.
TRUE

Consider next the compound COCCOC(=O)N1C(=O)[C@@]2(c3cc(C#CCC(C(=O)OC)C(=O)OC)ccc31)[C@H](C(=O)Nc1nc3ccccc3s1)[C@H]1C(=O)O[C@H](c3ccccc3)[C@H](c3ccccc3)N1[C@@H]2c1ccccc1OCCO in the same way.
TRUE

Consider next the compound COCCOC(=O)N1C(=O)[C@@]2(c3cc(C#CCC(C(=O)OC)C(=O)OC)ccc31)[C@H](c1ccccc1OCCO)N1[C@H](c3ccccc3)[C@H](c3ccccc3)OC(=O)[C@H]1[C@@H]2C(=O)NC[C@H](O)c1ccccc1 in the same way.
TRUE

###

System: Inhibin beta A chain (activin A)
Test: INHBA (activin A) binders on microarrays, primary screen, biochemical, small-molecule microarray, 635 nm fluorescence scan (AID 1107);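 also: mouse activin A protein probed at 4.33 µg/mL on printed slides; score merges bound-protein fluorescence near 667 nm with spot signal-to-noise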
Details: small-molecule microarray binding, higher = more signal
EXPERIMENTAL READOUT: composite z-score

| COMPOUND | composite z-score |
| --- | --- |
| CCCC[C@H]1OB(O)C[C@H]2C1=C(COC)C[C@H]1C(=O)N(C)C(=O)[C@H]12 | 0.687 |
| COc1ccc(C(=O)Nc2ccc(CN3C(=O)[C@]4(O[C@H](CCO)[C@@H]([Si](C)(C)c5ccc(OC)cc5)[C@@H]4C)c4ccccc43)cc2)cc1 | 1.3 |
| CC(C)[Si]1(C(C)C)O[C@@H](c2ccccc2)c2cc(-c3ccc(-c4ccc(Cl)c(Cl)c4)o3)nc(-c3ccccc3)c21 | 0.756 |
| NC(=O)N1C(=O)C2C(C1=O)C1C=C(c3ccc(CO)cc3)C2C(c2cccs2)N1Cc1cccc(OC(F)(F)F)c1 (configuration not stated) | 1.49 |

Give me composite z-score for each of these compounds, listed below.
1. COc1ccc([Si](C)(C)[C@H]2[C@H](CC(=O)N3Cc4ccccc4C[C@H]3CO)O[C@@]3(C(=O)N(Cc4cccc(N5CCC5=O)c4)c4ccccc43)[C@@H]2C)cc1
2. CCC[C@@H]1C[C@@]1(CCC)[C@@H](NC(=O)c1ccccc1)c1cccc(Cl)c1
3. COCCOC(=O)N1C(=O)[C@@]2(c3cc(C#Cc4ccc(OC)cc4)ccc31)[C@H](c1ccc(O)cc1)N1[C@H](c3ccccc3)[C@H](c3ccccc3)OC(=O)[C@H]1[C@@H]2C(=O)N1CCc2cc(OC)c(OC)cc2C1

0.962
1.08
-0.0186

###

Experiment: small-molecule microarray binders of probe aLefty2, primary screen, biochemical, biotinylated probe, 635/667 nm fluorescence (AID 1094);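 also: score merges spot fluorescence near 667 nm with spot signal-to-noise ratio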
Conditions: higher = more signal
Give measured composite z-score for each item. Keep answers brief.
Answers are plain numbers.

Please review the entries below; each comes with its answer.
| COMPOUND | VALUE OBSERVED |
| --- | --- |
| COCCCNC(=O)[C@@H]1c2ccccc2C(=O)N(Cc2ccccc2Cl)[C@H]1c1ccc(CO)cc1 | -0.101 |
| O=C(c1ccccc1)N1C(=O)[C@]2(COC(c3ccc(OCCCO)cc3)=N2)Cc2ccccc21 | 0.133 |
| CN(C)CCCCCCNC(=O)[C@H]1C[C@H]2C(=O)N[C@@H](CCCCN)C(=O)N2[C@H]1c1cccc(OCCO)c1 | 1.76 |
| C=C(COC)/C(=C/C[C@H](OC(C)=O)c1ccc(CO)o1)c1cc(C(=O)OC)ccc1OC | -0.142 |
| CCCCCN1CC=CC23O[C@@H]4/C=C\CCC(C)OC(=O)C4[C@H]2C(=O)N(C(C)CO)[C@@H]3C1=O (stereo partly specified) | -0.238 |

Give me composite z-score for each of these compounds, listed below.
1. CC(C)N1C(=O)C[C@@](C(=O)NCC(F)(F)F)(c2ccc([N+](=O)[O-])cc2)[C@H]1c1ccc(CO)cc1
2. C=C[C@@H](COC(=O)OC(C)(C)C)N(Cc1ccc(OC)cc1)S(=O)(=O)c1ccc(Br)cc1
3. COCCCNC(=O)[C@]1(CCC(=O)OC(C)(C)C)N=C(c2ccc(OCCCO)cc2)O[C@@H]1c1ccccc1CN=[N+]=[N-]
4. CC(C)=CCCC(C)=CC(O)C1C=CC2C(=O)N(C)C(=O)C2N1Nc1ccccc1 (stereo unspecified)
5. C=C[C@H](OC)[C@@H](OC(=O)Nc1ccc(OC)cc1)c1ccc(O)c(F)c1

1. -0.195
2. 0.047
3. 0.0894
4. 0.245
5. -0.21

Give me composite z-score for each of these compounds, listed below.
1. O=C1C[C@@](C(=O)NCC(F)(F)F)(c2ccc([N+](=O)[O-])cc2)[C@@H](c2ccc(CO)cc2I)N1C1CCCCC1
2. COC(=O)[C@@]1(Cc2ccc(OC)cc2)[C@H]2c3cc(C(=O)N4CCCC4)n(CCN4CNCC4=O)c3C[C@H]2CN1C(=O)c1ccccc1
3. CCCc1cc2c(n1Cc1cc(F)cc(F)c1)C(C)C1CN(C(=O)c3ccccc3)C(C)(C(=O)OC)C21 (stereo unspecified)
4. CCOC(=O)C[C@H]1[C@H](OC(=O)c2ccc(C(=O)c3ccccc3)cc2)[C@@H](NC(=O)c2ccc3ccccc3c2)c2cc(OCCCO)ccc2N1C(=O)Cc1ccc(OC)cc1
5. CC1CC/C=C\[C@H]2OC34C=CCN(Cc5ccccc5)C(=O)[C@H]3N(CCCO)C(=O)[C@@H]4C2C(=O)O1 (stereo partly specified)
6. CC(C)CNC(=O)[C@@]1(Cc2ccccc2I)c2ccccc2C(=O)N(C2CCCCC2)[C@H]1c1ccc(CO)cc1

1. 0.0524
2. 1.42
3. 1.02
4. 0.0633
5. -0.254
6. 0.164

###

Target: NADPH oxidase 2 (Homo sapiens) (UniProt P04839)
Sequence (P04839 whole entry, looked up): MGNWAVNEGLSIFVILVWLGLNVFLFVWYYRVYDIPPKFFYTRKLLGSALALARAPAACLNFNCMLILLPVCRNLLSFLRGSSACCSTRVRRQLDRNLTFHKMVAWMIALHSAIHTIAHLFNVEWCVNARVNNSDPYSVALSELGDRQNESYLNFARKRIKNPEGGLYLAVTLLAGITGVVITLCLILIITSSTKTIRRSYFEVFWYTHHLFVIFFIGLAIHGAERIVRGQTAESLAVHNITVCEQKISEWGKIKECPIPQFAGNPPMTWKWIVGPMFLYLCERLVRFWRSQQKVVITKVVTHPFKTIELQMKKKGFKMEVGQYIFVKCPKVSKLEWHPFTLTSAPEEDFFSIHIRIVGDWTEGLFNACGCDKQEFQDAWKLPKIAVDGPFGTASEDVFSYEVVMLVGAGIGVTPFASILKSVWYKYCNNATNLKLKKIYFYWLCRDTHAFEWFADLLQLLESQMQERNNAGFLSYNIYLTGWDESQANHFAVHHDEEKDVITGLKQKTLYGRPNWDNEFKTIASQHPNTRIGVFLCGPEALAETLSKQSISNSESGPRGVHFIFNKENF
Test: NOX2-dependent H2O2 signal modulators, primary screen, NOX inhibitor project, cell-based, HEK293-NOX2, PMA-stimulated, Amplex Red fluorescence (AID 1159); also: test concentration not given here
Conditions: 45 min, higher = more signal, called active from +8 up or from −8 down
EXPERIMENTAL READOUT: z-score
One number for each entry.

Please review the entries below; each comes with its answer.
| COMPOUND | VALUE OBSERVED |
| --- | --- |
| NCCCCCNC(=O)[C@@H]1C[C@@H]2C(=O)N[C@@H](Cc3ccccc3)C(=O)N2[C@@H]1c1ccc(O)cc1 | 0.713 |
| C=CCC(OC(C)=O)[C@@H]1[C@@H](N(Cc2ccc(-c3ccccc3)cc2)C(=O)c2cccc3ccccc23)c2cc(OCCCO)ccc2N1C(=O)c1ccc(-c2ccccc2)cc1 (stereo partly specified) | 0.299 |
| NCCCCCCNC(=O)[C@@H]1C[C@@H]2C(=O)NCC(=O)N2[C@@H]1c1ccc(O)cc1 | -0.302 |
| C[N+](C)(C)CCCCCCNC(=O)[C@@H]1C[C@@H]2C(=O)N[C@@H](Cc3ccccc3)C(=O)N2[C@@H]1c1cccc(OCCO)c1 | 1.39 |
| C=C(CCCC)/C(=C/C[C@H](OC(=O)c1ccncc1)c1ccccc1OCCO)c1cnc2ccccc2c1 | -1.22 |

Next item in the queue.
Observed z-score on NADPH oxidase 2 (Homo sapiens) (UniProt P04839) for COC(=O)C(CC#Cc1ccc2c(c1)[C@]1(C(=O)N2)[C@H](c2ccc(OCCO)cc2)N2[C@H](c3ccccc3)[C@H](c3ccccc3)OC(=O)[C@H]2[C@@H]1C(=O)N1CCc2cc(OC)c(OC)cc2C1)C(=O)OC , please.
1.13
